- tested-on: JAK2 (Homo sapiens)
- Construct: 5 μl of catalytic domain recombinant Kinase enzyme+Tyr peptide substrate (Invitrogen, CA)
- assay-method-text: Z'-LYTE kinase assay JAK2
pIC50: −log10 of the molar value.
pIC50: recorded values

Consider the reported pIC50 for these molecules:
entry-smiles: NC(=O)c1cnc(Nc2ccc(N3CCCC3=O)c(Cl)c2)cc1NCc1cccc(F)c1
observed: 6.00 to 7.00
--
entry-smiles: NC(=O)c1cnc(Nc2cccc(C3CCOCC3)c2)cc1NCc1cc(F)cc(F)c1
observed: 7.00 to 8.00
--
entry-smiles: NC(=O)c1cnc(Nc2ccc(C3CCN(C4CCCC4)CC3)cc2)cc1NCc1ccccc1F
observed: 6.00 to 7.00

Prompt: // pIC50 lookup, key: CCC(=O)N1CCC(c2ccc(Nc3cc(NCc4ccccc4)c(C(N)=O)cn3)cc2)CC1
Response: 6.00 to 7.00

Prompt: // pIC50 lookup, key: COC(=O)N(C)c1ccc(Nc2cc(NCc3cccc4ccsc34)c(C(N)=O)cn2)cc1
Response: 6.00 to 7.00

Prompt: // pIC50 lookup, key: COC(=O)N1CC(c2ccc(Nc3cc(NCc4ccccc4)c(C(N)=O)cn3)cc2)C1
Response: 6.00 to 7.00

Prompt: // pIC50 lookup, key: N#CCN1CCC(c2ccc(Nc3cc(NCc4cc(F)ccc4F)c(C(N)=O)cn3)cc2)CC1
Response: 7.00 to 8.00

Prompt: // pIC50 lookup, key: COCC(=O)N1CCC(c2ccc(Nc3cc(NCc4ccccc4F)c(C(N)=O)cn3)cc2)CC1
Response: 7.00 to 8.00

----------
IC50: recorded values
- tested-on: JAK2 (Homo sapiens, UniProt O60674)
- Construct: 5 μl of catalytic domain recombinant Kinase enzyme+Tyr peptide substrate (Invitrogen, CA)
- Sequence (O60674 849-1124 limits assumed): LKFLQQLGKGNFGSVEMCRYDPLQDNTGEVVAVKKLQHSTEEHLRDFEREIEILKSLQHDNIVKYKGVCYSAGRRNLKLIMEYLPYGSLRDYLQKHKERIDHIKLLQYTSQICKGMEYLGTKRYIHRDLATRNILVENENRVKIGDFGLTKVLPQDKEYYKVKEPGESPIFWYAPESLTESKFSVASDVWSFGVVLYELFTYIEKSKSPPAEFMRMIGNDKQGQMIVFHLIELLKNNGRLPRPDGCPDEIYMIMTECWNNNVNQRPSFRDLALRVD
- assay-method-text: Z'-LYTE kinase assay JAK2

Consider the reported IC50 for these compounds:
compound: CS(=O)(=O)NCc1ccc(Nc2cc(NCc3cccc4ccsc34)c(C(N)=O)cn2)cc1 [Example 353]
IC50: 10 to 100 nM
//
compound: NC(=O)c1cnc(Nc2ccc(C3CCOCC3)cc2)cc1NC1CCCCC1 [Example 157]
IC50: > 1000 nM
//
compound: NC(=O)c1cnc(Nc2ccc(C(=O)N3CCC3)cc2)cc1NCc1c(F)cccc1F [Example 105]
IC50: 10 to 100 nM
//
compound: Cc1cc(Nc2cc(NCc3ccccc3)c(C(N)=O)cn2)ccc1C(=O)N1CCCC1 [Example 446]
IC50: 10 to 100 nM
//
compound: Cc1cc(Nc2cc(NCc3cccc4[nH]ccc34)c(C(N)=O)cn2)ccc1C(=O)N(C)C [Example 295]
IC50: 1 to 10 nM
//
compound: CC(=O)N1CCN(c2ccc(Nc3cc(NCc4cccc(Cl)c4)c(C(N)=O)cn3)cc2)CC1 [Example 257]
IC50: 10 to 100 nM

Prompt: // IC50 lookup, key: CC(=O)N1CCC[C@H](CNc2cc(Nc3ccc(C(=O)N(C)C)c(F)c3)ncc2C(N)=O)C1 [Example 275]
Response: > 1000 nM

Prompt: // IC50 lookup, key: Cc1cc(Nc2cc(NCc3cccc(F)c3F)c(C(N)=O)cn2)ccc1C(=O)N1CCOCC1 [Example 455]
Response: 10 to 100 nM

Prompt: // IC50 lookup, key: NC(=O)c1cnc(Nc2ccc(N3CCN(c4ccccn4)CC3)cc2)cc1NCc1cccc2[nH]ccc12 [Example 402]
Response: 10 to 100 nM

Prompt: // IC50 lookup, key: CC(=O)Nc1ccc(Nc2cc(NCc3cccc4cc[nH]c34)c(C(N)=O)cn2)cc1 [Example 473]
Response: 100 to 1000 nM

Prompt: // IC50 lookup, key: COc1ccc(Nc2cc(NC[C@H]3CCCN(C(=O)N4CCCC4)C3)c(C(N)=O)cn2)cc1 [Example 290]
Response: > 1000 nM

Prompt: // IC50 lookup, key: CN(CC(F)(F)F)C(=O)c1ccc(Nc2cc(NCc3cncc(F)c3)c(C(N)=O)cn2)cc1 [Example 314]
Response: 100 to 1000 nM

Prompt: // IC50 lookup, key: CC(=O)Nc1cccc(Nc2cc(NC3(c4ccccc4)CC3)c(C(N)=O)cn2)c1 [Example 135]
Response: > 1000 nM

----------
- tested-on: JAK3 (Homo sapiens)
- Construct: 5 μl of catalytic domain recombinant Kinase enzyme+Tyr peptide substrate (Invitrogen, CA)
- Sequence (P52333 822-1111 limits assumed): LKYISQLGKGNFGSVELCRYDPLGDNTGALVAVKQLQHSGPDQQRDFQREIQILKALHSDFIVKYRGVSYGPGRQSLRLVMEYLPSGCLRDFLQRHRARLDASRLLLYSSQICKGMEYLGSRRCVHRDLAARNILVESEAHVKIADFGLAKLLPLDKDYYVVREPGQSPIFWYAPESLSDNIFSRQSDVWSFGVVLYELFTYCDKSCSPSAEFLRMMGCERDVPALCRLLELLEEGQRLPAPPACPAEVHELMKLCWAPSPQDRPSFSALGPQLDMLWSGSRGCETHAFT
- assay-method-text: Z'-LYTE kinase assay JAK3
property-label: IC50

Prompt: // IC50 lookup, key: Cc1cc(Nc2cc(NCc3cccc4ccsc34)c(C(N)=O)cn2)ccc1C(=O)N1CCCC1
Response: 1 to 10 nM

Prompt: // IC50 lookup, key: COc1ccc(Nc2cc(NCC3CCN(C(C)=O)CC3)c(C(N)=O)cn2)cc1
Response: > 1000 nM

Prompt: // IC50 lookup, key: NC(=O)c1cnc(Nc2ccc(OC(F)(F)F)cc2)cc1NCc1cccc2[nH]ccc12
Response: 100 to 1000 nM

Prompt: // IC50 lookup, key: NC(=O)c1cnc(Nc2ccc(C3CCOCC3)cc2)cc1NCC1CCCC1
Response: 10 to 100 nM

----------
- tested-on: JAK3 (Homo sapiens)
- Construct: 5 μl of catalytic domain recombinant Kinase enzyme+Tyr peptide substrate (Invitrogen, CA)
- assay-method-text: Z'-LYTE kinase assay JAK3
pIC50: −log10 of the molar value.
property-label: pIC50

Consider the reported pIC50 for these compounds:
entry-smiles: Cc1cc(Nc2cc(NCc3cccc4[nH]ccc34)c(C(N)=O)cn2)ccc1C(=O)N1CCOCC1
pIC50: > 9.00
--
entry-smiles: COc1ccc(Nc2cc(NC[C@H]3CCCN(C(=O)N4CCCC4)C3)c(C(N)=O)cn2)cc1
pIC50: 6.00 to 7.00
--
entry-smiles: NC(=O)c1cnc(Nc2ccc(N3CCCCC3)cc2)cc1N[C@H](CO)c1ccccc1
pIC50: 7.00 to 8.00

Prompt: Query the reported pIC50 for JAK3 (Homo sapiens); item: COc1ccc(Nc2cc(NCc3ccccc3)c(C(N)=O)cn2)cc1C
Response: 7.00 to 8.00

Prompt: Query the reported pIC50 for JAK3 (Homo sapiens); item: NC(=O)c1cnc(Nc2ccc(F)c(C(=O)N3CCC3)c2)cc1NCc1ccccc1
Response: 7.00 to 8.00

----------
- tested-on: TYK2 (Homo sapiens, UniProt P29597)
- Construct: 5 μl of catalytic domain recombinant Kinase enzyme+Tyr peptide substrate (Invitrogen, CA)
- Sequence (P29597 897-1176 limits assumed): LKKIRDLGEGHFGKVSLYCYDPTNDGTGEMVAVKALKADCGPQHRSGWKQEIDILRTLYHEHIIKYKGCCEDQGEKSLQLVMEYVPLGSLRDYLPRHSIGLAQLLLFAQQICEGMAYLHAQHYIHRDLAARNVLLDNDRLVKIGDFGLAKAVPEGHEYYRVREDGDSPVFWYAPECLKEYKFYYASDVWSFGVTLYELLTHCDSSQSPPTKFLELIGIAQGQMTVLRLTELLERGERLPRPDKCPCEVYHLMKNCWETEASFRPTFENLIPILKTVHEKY
- assay-method-text: Z'-LYTE kinase assay TYK2
property-label: IC50

Consider the reported IC50 for these compounds:
entry-smiles: CC(=O)N1CCN(c2ccc(Nc3cc(NC4Cc5ccccc5C4)c(C(N)=O)cn3)cc2)CC1
IC50: 100 to 1000 nM

entry-smiles: Cc1cc(Nc2cc(NCc3ccccc3)c(C(N)=O)cn2)ccc1C(=O)N1CCC1
IC50: 10 to 100 nM

entry-smiles: CC(=O)N1CCN(c2ccc(Nc3cc(NCCc4ccccc4)c(C(N)=O)cn3)cc2)CC1
IC50: 100 to 1000 nM

entry-smiles: CCC(=O)N1CCC(c2ccc(Nc3cc(NCc4ccccc4)c(C(N)=O)cn3)cc2)CC1
IC50: 100 to 1000 nM

entry-smiles: CN1CCC(c2ccc(Nc3cc(NCc4ccccc4F)c(C(N)=O)cn3)cc2)CC1
IC50: 100 to 1000 nM

Prompt: // IC50 lookup, key: Cc1cc(Nc2cc(NCc3cccc4cc[nH]c34)c(C(N)=O)cn2)ccc1C(=O)N(C)C
Response: > 1000 nM

Prompt: // IC50 lookup, key: Cc1cc(Nc2cc(NCc3ccccc3)c(C(N)=O)cn2)ccc1C(=O)N(C)C
Response: 100 to 1000 nM

Prompt: // IC50 lookup, key: NC(=O)c1cnc(Nc2ccc(N3CCCCC3)cc2)cc1NCc1ccccc1F
Response: 100 to 1000 nM

----------
pIC50: recorded values
- tested-on: JAK3 (Homo sapiens)
- Construct: 5 μl of catalytic domain recombinant Kinase enzyme+Tyr peptide substrate (Invitrogen, CA)
- assay-method-text: Z'-LYTE kinase assay JAK3
pIC50: −log10 of the molar value.

Consider the reported pIC50 for these molecules:
entry-smiles: CN(C)C(=O)Cc1ccc(Nc2cc(NCc3ccccc3)c(C(N)=O)cn2)cc1
pIC50: 8.00 to 9.00
--
entry-smiles: NC(=O)c1cnc(Nc2ccc(C3CCOCC3)cc2)cc1NCc1ncccn1
pIC50: 6.00 to 7.00
--
entry-smiles: CC(C)c1ccc(Nc2cc(NCc3ccccc3F)c(C(N)=O)cn2)cc1
pIC50: 7.00 to 8.00
--
entry-smiles: CN1CCC(c2ccc(Nc3cc(NCc4ccccc4F)c(C(N)=O)cn3)cc2)CC1
pIC50: 8.00 to 9.00
--
entry-smiles: CNC(=O)[C@@H]1CCCN(c2ccc(Nc3cc(N[C@H](C)c4ccccc4)c(C(N)=O)cn3)cc2)C1
pIC50: 8.00 to 9.00

Prompt: // pIC50 lookup, key: NC(=O)c1cnc(Nc2ccc(N3CCOCC3)cc2)cc1NCc1ccccc1F
Response: 8.00 to 9.00

Prompt: // pIC50 lookup, key: NC(=O)c1cnc(Nc2cccc(N3CCNCC3)c2)cc1NC1(c2ccccc2)CC1
Response: 7.00 to 8.00

Prompt: // pIC50 lookup, key: N#CCc1cccc(Nc2cc(NCc3ccccc3)c(C(N)=O)cn2)c1
Response: 8.00 to 9.00
